protocol: Membrane permeability test, parallel artificial membrane permeability assay (PAMPA)
Format: in vitro ADME
measurement setup: pH 7.4, 37° C., read-out: permeability coefficient Pe (pH 7.4)
Description: By the parallel artificial membrane permeability assay (PAMPA), the membrane permeability of compounds of Examples was examined as follows: To the donor plate, System solution (pION inc.) and GIT Lipid-0 (pION inc.) were added in an amount of 200 μL and 4 μL for each well, respectively. […] Both plates were superposed and incubated at 37° C. for 4 hours, and then, UVs in the solutions on the side of acceptor and on the side of donor were measured with a UV plate reader (190 to 500 nm). […]
Reported Papp at 4 h values for the following molecules.
parameter measured: Papp at 4 h (×10⁻⁶ cm/s)

molecule="CN[C@H](C(=O)N[C@H](C(=O)N(C)[C@H](/C=C(\\C)C(=O)O)C(C)C)C(C)(C)C)C(C)(C)c1cn(C)c2ccccc12 [Hemiasterlin, reference compound]" censoring_operator== endpoint_value=25.6
molecule="CN[C@H](C(=O)N[C@H](C(=O)N(C)[C@H](/C=C(\\C)C(=O)N[C@H](CCC(=O)O)C(=O)O)C(C)C)C(C)(C)C)C(C)(C)c1cn(C)c2ccccc12 [Example 1]" censoring_operator=< endpoint_value=0.1
molecule="CN[C@H](C(=O)N[C@H](C(=O)N(C)[C@H](/C=C(\\C)C(=O)NCCCC[C@@H](NC(=O)CCCN1C(=O)CC(SC[C@H](N)C(=O)O)C1=O)C(=O)O)C(C)C)C(C)(C)C)C(C)(C)c1ccccc1 (stereo partly shown) [Example 58]" censoring_operator== endpoint_value=3
molecule="C/C(=C\\[C@H](C(C)C)N(C)C(=O)[C@@H](NC(=O)[C@H]1CCCCN1C(C)C)C(C)(C)C)C(=O)N[C@H](CCC(=O)O)C(=O)O [Example 3]" censoring_operator=< endpoint_value=0.1
molecule="CN[C@H](C(=O)N[C@H](C(=O)N(C)[C@H](/C=C(\\C)C(=O)N[C@@H](CCC(=O)NCCN1C(=O)CC(SC[C@H](N)C(=O)O)C1=O)C(=O)O)C(C)C)C(C)(C)C)C(C)(C)c1cn(C)c2ccccc12 (stereo partly shown) [Example 49]" censoring_operator=< endpoint_value=0.1
molecule="CN[C@H](C(=O)N[C@H](C(=O)N(C)[C@H](/C=C(\\C)C(=O)N[C@H](CCC(=O)O)C(=O)O)C(C)C)C(C)(C)C)C(C)(C)c1ccccc1 [Example 2]" censoring_operator=< endpoint_value=0.1
molecule="CN[C@H](C(=O)N[C@H](C(=O)N(C)[C@H](/C=C(\\C)C(=O)N[C@H](CC(=O)NCCN1C(=O)CC(SC[C@H](N)C(=O)O)C1=O)C(=O)O)C(C)C)C(C)(C)C)C(C)(C)c1ccccc1 (stereo partly shown) [Example 40]" censoring_operator== endpoint_value=3
molecule="CN[C@H](C(=O)N[C@H](C(=O)N(C)[C@H](/C=C(\\C)C(=O)N[C@H](CCC(=O)O)C(=O)NCCN1C(=O)CC(SC[C@H](N)C(=O)O)C1=O)C(C)C)C(C)(C)C)C(C)(C)c1ccccc1 (stereo partly shown) [Example 46]" censoring_operator== endpoint_value=3.5
molecule="CN[C@H](C(=O)N[C@H](C(=O)N(C)[C@H](/C=C(\\C)C(=O)NCCCC[C@@H](NC(=O)CCCN1C(=O)CC(SC[C@H](N)C(=O)O)C1=O)C(=O)O)C(C)C)C(C)(C)C)C(C)(C)c1cn(C)c2ccccc12 (stereo partly shown) [Example 39]" censoring_operator== endpoint_value=1.4
molecule="CN[C@H](C(=O)N[C@H](C(=O)N(C)[C@H](/C=C(\\C)C(=O)N[C@@H](CCCCNC(=O)CCCN1C(=O)CC(SC[C@H](N)C(=O)O)C1=O)C(=O)O)C(C)C)C(C)(C)C)C(C)(C)c1cn(C)c2ccccc12 (stereo partly shown) [Example 57]" censoring_operator=< endpoint_value=0.1

----------
Reported values of Papp at 4 h for individual entries
protocol: Membrane permeability test, parallel artificial membrane permeability assay (PAMPA)
Assay type: in vitro ADME
measurement setup: pH 7.4, 37° C., read-out: permeability coefficient Pe (pH 7.4)
parameter measured: Papp at 4 h (×10⁻⁶ cm/s)

molecule="CN[C@H](C(=O)N[C@H](C(=O)N(C)[C@H](/C=C(\\C)C(=O)N[C@@H](CCC(=O)O)C(=O)O)C(C)C)C(C)(C)C)C(C)(C)c1cn(C)c2ccccc12 [Example 6]" parameter_measured="Papp at 4 h" censoring_operator=< endpoint_value=0.1
molecule="CN[C@H](C(=O)N[C@H](C(=O)N(C)[C@H](/C=C(\\C)C(=O)N[C@H](CCC(=O)NCCCN1C(=O)CC(SC[C@H](N)C(=O)O)C1=O)C(=O)O)C(C)C)C(C)(C)C)C(C)(C)c1cn(C)c2ccccc12 (stereo partly shown) [Example 54]" parameter_measured="Papp at 4 h" censoring_operator=< endpoint_value=0.1
molecule="CN[C@H](C(=O)N[C@H](C(=O)N(C)[C@H](/C=C(\\C)C(=O)N[C@H](CCC(=O)NCCCCN1C(=O)CC(SC[C@H](N)C(=O)O)C1=O)C(=O)O)C(C)C)C(C)(C)C)C(C)(C)c1ccccc1 (stereo partly shown) [Example 48]" parameter_measured="Papp at 4 h" censoring_operator== endpoint_value=5.8
molecule="CN[C@H](C(=O)N[C@H](C(=O)N(C)[C@H](/C=C(\\C)C(=O)N[C@H](CCCCN)C(=O)O)C(C)C)C(C)(C)C)C(C)(C)c1cn(C)c2ccccc12 [Example 7]" parameter_measured="Papp at 4 h" censoring_operator== endpoint_value=0.8

----------
protocol: Membrane permeability test, parallel artificial membrane permeability assay (PAMPA)
Assay type: in vitro ADME
measurement setup: pH 7.4, 37° C., read-out: permeability coefficient Pe (pH 7.4)
parameter measured: Papp at 4 h

compound="CN[C@H](C(=O)N[C@H](C(=O)N(C)[C@H](/C=C(\\C)C(=O)N[C@@H](CCC(=O)O)C(=O)O)C(C)C)C(C)(C)C)C(C)(C)c1ccccc1 [Example 9]" endpoint_value="< 0.1 ×10⁻⁶ cm/s"
compound="CN[C@H](C(=O)N[C@H](C(=O)N(C)[C@H](/C=C(\\C)C(=O)N[C@H](CC(=O)O)C(=O)O)C(C)C)C(C)(C)C)C(C)(C)c1cn(C)c2ccccc12 [Example 5]" endpoint_value="< 0.1 ×10⁻⁶ cm/s"
compound="CN[C@H](C(=O)N[C@H](C(=O)N(C)[C@H](/C=C(\\C)C(=O)N[C@@H](CC(=O)NCCN1C(=O)CC(SC[C@H](N)C(=O)O)C1=O)C(=O)O)C(C)C)C(C)(C)C)C(C)(C)c1ccccc1 (some centres unmarked) [Example 41]" endpoint_value="< 0.1 ×10⁻⁶ cm/s"
compound="CN[C@H](C(=O)N[C@H](C(=O)N(C)[C@H](/C=C(\\C)C(=O)N[C@H](CCC(=O)NCCN1C(=O)CC(SC[C@H](N)C(=O)O)C1=O)C(=O)O)C(C)C)C(C)(C)C)C(C)(C)c1ccccc1 (some centres unmarked) [Example 37]" endpoint_value="0.2 ×10⁻⁶ cm/s"
compound="CN[C@H](C(=O)N[C@H](C(=O)N(C)[C@H](/C=C(\\C)C(=O)N[C@@H](CCC(=O)NCCN1C(=O)CC(SC[C@H](N)C(=O)O)C1=O)C(=O)O)C(C)C)C(C)(C)C)C(C)(C)c1ccccc1 (some centres unmarked) [Example 42]" endpoint_value="2.2 ×10⁻⁶ cm/s"

----------
We begin with a simple list: items and their reported Microtubule polymerization rate (%).
target under test: porcine tubulin (Sus scrofa, UniProt P02550+P02554)
Construct: purchased Cytoskeleton Inc. BK006P
Sequence (P02550 whole entry): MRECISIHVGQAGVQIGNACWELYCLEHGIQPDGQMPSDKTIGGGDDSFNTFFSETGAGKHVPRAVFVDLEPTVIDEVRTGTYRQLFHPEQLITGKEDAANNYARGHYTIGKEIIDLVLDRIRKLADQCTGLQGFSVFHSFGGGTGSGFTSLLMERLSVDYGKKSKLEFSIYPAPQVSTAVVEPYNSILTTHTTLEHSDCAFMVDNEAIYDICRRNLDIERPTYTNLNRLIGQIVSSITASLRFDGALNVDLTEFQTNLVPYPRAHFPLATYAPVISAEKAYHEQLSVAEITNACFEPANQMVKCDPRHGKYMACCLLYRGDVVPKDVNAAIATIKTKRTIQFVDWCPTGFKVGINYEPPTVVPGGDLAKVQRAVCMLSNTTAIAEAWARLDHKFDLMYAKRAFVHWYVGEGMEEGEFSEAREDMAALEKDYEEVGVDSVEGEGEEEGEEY
Sequence (P02554 whole entry): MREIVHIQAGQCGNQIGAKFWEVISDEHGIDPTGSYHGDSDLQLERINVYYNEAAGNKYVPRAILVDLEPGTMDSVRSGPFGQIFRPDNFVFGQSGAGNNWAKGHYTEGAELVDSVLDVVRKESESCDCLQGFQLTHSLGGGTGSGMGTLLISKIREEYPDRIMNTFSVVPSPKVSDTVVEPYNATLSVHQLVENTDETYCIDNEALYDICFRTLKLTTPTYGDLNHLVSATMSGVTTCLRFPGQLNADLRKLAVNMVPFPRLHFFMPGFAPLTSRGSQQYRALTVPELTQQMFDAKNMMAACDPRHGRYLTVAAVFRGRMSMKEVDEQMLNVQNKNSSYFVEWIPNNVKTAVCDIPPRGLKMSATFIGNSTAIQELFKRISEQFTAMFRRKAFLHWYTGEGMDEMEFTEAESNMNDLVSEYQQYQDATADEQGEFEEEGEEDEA
protocol: Activity for inhibiting microtubule polymerization using porcine tubulins (2), microtubule polymerization rate
Assay type: biochemical
measurement setup: compound 9.1 μM, 60 minutes after assay initiation, relative to wells without compound; lower = stronger inhibition
parameter measured: Microtubule polymerization rate (%)

compound="CN[C@H](C(=O)N[C@H](C(=O)N(C)[C@H](/C=C(\\C)C(=O)N[C@@H](CCC(=O)O)C(=O)O)C(C)C)C(C)(C)C)C(C)(C)c1ccccc1 [Example 9]" target_under_test="porcine tubulin (Sus scrofa, UniProt P02550+P02554)" parameter_measured="Microtubule polymerization rate (%)" unit_annotation=% endpoint_value=5
compound="CN[C@H](C(=O)N[C@H](C(=O)N(C)[C@H](/C=C(\\C)C(=O)NCCCC[C@@H](NC(=O)CCCN1C(=O)CC(SC[C@H](N)C(=O)O)C1=O)C(=O)O)C(C)C)C(C)(C)C)C(C)(C)c1cn(C)c2ccccc12 (stereo partly drawn) [Example 39]" target_under_test="porcine tubulin (Sus scrofa, UniProt P02550+P02554)" parameter_measured="Microtubule polymerization rate (%)" unit_annotation=% endpoint_value=2
compound="CN[C@H](C(=O)N[C@H](C(=O)N(C)[C@H](/C=C(\\C)C(=O)N[C@H](CCC(=O)O)C(=O)NCCN1C(=O)CC(SC[C@H](N)C(=O)O)C1=O)C(C)C)C(C)(C)C)C(C)(C)c1ccccc1 (stereo partly drawn) [Example 46]" target_under_test="porcine tubulin (Sus scrofa, UniProt P02550+P02554)" parameter_measured="Microtubule polymerization rate (%)" unit_annotation=% endpoint_value=0
